molecular target: wt human TYK2, catalytic site (Homo sapiens, UniProt P29597); construct: wt human TYK2, catalytic site; assay: HTRF KinEASE assay, TYK2; details: 1 μM ATP; read-out: IC50, Activity Toward TYK2
Sequence (P29597 897-1176 limits assumed): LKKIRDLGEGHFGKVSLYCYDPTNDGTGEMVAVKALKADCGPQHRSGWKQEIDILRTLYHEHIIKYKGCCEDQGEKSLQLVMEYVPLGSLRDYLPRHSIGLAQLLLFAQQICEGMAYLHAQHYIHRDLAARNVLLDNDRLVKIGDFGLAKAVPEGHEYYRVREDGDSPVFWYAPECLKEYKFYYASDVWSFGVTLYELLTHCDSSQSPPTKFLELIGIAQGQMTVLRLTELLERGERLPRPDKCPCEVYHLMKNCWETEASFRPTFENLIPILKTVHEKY
pIC50: −log10 of the molar value.
Overview of reported pIC50 across a group of compounds:

Q: Find the recorded pIC50 belonging to NC(=O)c1nn(-c2c(Cl)cccc2Cl)cc1Nc1cnn(CC(=O)N2CCS(=O)(=O)CC2)c1 [compound 469] and report it.
Result: 7.00 to 8.00

Q: Find the recorded pIC50 belonging to Cc1c[n+]([O-])ccc1-c1ccc(Nc2cn(-c3c(Cl)cccc3Cl)nc2C(N)=O)cc1 [compound 267] and report it.
Result: 7.00 to 8.00

Q: Find the recorded pIC50 belonging to CCc1cnnn1-c1ccc(Nc2nn(-c3c(Cl)cccc3Cl)nc2C(N)=O)cc1 [compound 126] and report it.
Result: 7.00 to 8.00

Q: Find the recorded pIC50 belonging to CN(C)[C@H]1CCN(C(=O)c2ccc(Nc3nn(-c4c(Cl)cccc4Cl)nc3C(N)=O)cc2)C1 [compound 105] and report it.
Result: > 8.00

Q: Find the recorded pIC50 belonging to CC(C)(C)NC(=O)c1ccc(Nc2cn(-c3c(Cl)cccc3Cl)nc2C(N)=O)cc1 [compound 26] and report it.
Result: 7.00 to 8.00
